Tested on: Mycobacterium tuberculosis
assay-info: In vitro inhibition of Mycobacterium tuberculosis H37Rv, determined at 2 ug/mL
Format: functional
Below is a list of entries, each paired with its recorded inhibition at 2 µg/mL value.
State the answer as a number, implicitly in %.

Example cases with answers are listed next.
COc1ccc(-c2c3nc4ccccc4c-3n[nH]c2N)cc1; 0
Nc1[nH]nc2c3ccccc3nc-2c1-c1ccccc1Cl; 0
CC(C)c1ccc(-c2c(N)nnc3c4ccccc4n(CCN(C)C)c23)cc1; 0
CCn1c2ccccc2c2nnc(N)c(-c3ccc(C)cc3)c21; 0
Cn1c2ccc(Br)cc2c2nnc(N)c(-c3ccccc3)c21; 0
Cc1ccc(-c2c3nc4ccccc4c-3n[nH]c2N)cc1; 0
Cn1c2ccccc2c2nnc(N)c(-c3cccc(Br)c3)c21; 0
NNC(=O)c1ccncc1; 59.1

The compound `Nc1[nH]nc2c3ccccc3nc-2c1-c1ccccc1F` showed inhibition at 2 µg/mL equal to 0

The compound `CCCn1c2ccccc2c2nnc(N)c(-c3ccc(C(C)C)cc3)c21` showed inhibition at 2 µg/mL equal to 0

The compound `CO[C@H]1/C=C/O[C@@]2(C)Oc3c(C)c(O)c4c(O)c(c(/C=N/N5CCN(C)CC5)c(O)c4c3C2=O)NC(=O)/C(C)=C\C=C\[C@H](C)[C@H](O)[C@@H](C)[C@@H](O)[C@@H](C)[C@H](OC(C)=O)[C@@H]1C` showed inhibition at 2 µg/mL equal to 91.7
